Measured TOP blocking, listed per entry for reference.
target: T1, human SIRPα v2 ECD recombinant protein (human); assay: competitive ELISA, plate-coated human SIRPα v2 ECD; blocked ligand: mFc tagged human CD47 ECD
T1 construct: extracellular domain; Coated on the ELISA plate
Numeric answer only, unit % assumed.

Solved entries:
binder	TOP blocking, %
Humanized anti-SIRPα antibody hu025.033 (antibody, V domains shown, Humanized from C25) VH: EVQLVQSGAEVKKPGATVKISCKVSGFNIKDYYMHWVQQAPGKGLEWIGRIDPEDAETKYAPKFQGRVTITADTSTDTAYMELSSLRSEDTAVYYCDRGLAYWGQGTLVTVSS VL: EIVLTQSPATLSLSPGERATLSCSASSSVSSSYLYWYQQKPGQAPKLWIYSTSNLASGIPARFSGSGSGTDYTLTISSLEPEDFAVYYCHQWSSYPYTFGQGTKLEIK	98.3
Humanized anti-SIRPα antibody hu025.023 (antibody, V domains shown, Humanized from C25) VH: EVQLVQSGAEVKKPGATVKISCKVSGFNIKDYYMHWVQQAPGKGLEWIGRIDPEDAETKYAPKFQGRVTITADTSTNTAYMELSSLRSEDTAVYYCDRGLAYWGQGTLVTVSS VL: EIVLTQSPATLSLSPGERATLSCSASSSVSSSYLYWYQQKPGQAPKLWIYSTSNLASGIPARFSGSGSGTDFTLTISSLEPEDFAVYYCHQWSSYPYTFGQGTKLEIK	98
Humanized anti-SIRPα antibody hu025.060 (antibody, V domains shown, Humanized from C25) VH: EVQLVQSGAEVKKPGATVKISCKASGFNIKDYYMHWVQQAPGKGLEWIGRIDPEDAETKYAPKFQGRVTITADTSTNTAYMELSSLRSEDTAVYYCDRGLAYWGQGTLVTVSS VL: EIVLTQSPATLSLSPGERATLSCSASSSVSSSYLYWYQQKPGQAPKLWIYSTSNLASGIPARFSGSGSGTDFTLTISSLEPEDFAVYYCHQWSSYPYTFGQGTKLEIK	97
Humanized anti-SIRPα antibody hu025.021 (antibody, V domains shown, Humanized from C25) VH: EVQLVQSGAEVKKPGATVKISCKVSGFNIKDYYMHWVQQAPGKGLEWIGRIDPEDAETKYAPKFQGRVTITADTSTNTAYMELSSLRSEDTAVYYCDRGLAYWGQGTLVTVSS VL: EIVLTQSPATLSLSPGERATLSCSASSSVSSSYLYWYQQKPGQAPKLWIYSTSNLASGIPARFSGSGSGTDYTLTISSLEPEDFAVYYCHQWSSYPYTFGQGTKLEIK	98.3
Anti-SIRPα antibody C25 (antibody, V domains shown, Mouse variable regions; also called 025c; 025) VH: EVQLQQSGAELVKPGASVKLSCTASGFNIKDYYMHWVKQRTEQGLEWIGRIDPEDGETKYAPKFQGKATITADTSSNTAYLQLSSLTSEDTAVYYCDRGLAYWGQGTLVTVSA VL: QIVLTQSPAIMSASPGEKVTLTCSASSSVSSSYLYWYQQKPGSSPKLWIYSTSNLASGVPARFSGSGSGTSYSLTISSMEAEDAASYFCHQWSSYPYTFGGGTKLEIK	98.6

Attention now turns to another entry.
Exercise: I have this binder here, Humanized anti-SIRPα antibody hu025.059 (antibody, V domains shown, Humanized from C25) VH: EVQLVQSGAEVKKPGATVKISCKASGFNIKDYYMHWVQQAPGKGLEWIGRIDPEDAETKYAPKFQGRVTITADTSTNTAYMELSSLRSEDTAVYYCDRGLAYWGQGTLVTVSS VL: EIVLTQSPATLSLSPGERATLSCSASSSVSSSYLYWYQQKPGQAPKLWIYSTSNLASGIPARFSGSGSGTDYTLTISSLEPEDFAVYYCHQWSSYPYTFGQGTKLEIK , and I need its recorded TOP blocking.
Solution: 98.3
